Experiment: Acute toxicity (mortality) and body weight change in Sarcoma-180 tumor-bearing mice;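 also: per cent mortality within the 10-day treatment period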
Details: mouse, in vivo, ip, 0.936 mg/kg
readout-type: mortality at 240 h
Just the number plus its unit, please.

Query block: # query: mortality at 240 h of entry CC(=O)C(O)N1C(=O)C=CC1=O (stereo not shown) [Methylglyoxal-maleimide]
Result block: 0%

----------
Experiment: Acute toxicity (mortality) and body weight change in Sarcoma-180 tumor-bearing mice;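 also: per cent mortality within the 10-day treatment period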
Conditions: mouse, in vivo, ip, 14.896 mg/kg
readout-type: mortality at 240 h (%)
Hi! Could you send only the number? It should be in %, unit omitted.

Query block: # query: mortality at 240 h of entry CC(=O)C(O)N1C(=O)C=CC1=O (stereo not shown) [Methylglyoxal-maleimide]
Result block: 100
